Origin of the recorded values: patent US20240400689A1

target: T1, human CD276 protein (human, UniProt Q5ZPR3 29-534)
T1 construct: whole, on cells; for SKOV3 and the other cancer lines the protein is the cells' own; also called B7-H3; B7H3
T1 sequence (looked up): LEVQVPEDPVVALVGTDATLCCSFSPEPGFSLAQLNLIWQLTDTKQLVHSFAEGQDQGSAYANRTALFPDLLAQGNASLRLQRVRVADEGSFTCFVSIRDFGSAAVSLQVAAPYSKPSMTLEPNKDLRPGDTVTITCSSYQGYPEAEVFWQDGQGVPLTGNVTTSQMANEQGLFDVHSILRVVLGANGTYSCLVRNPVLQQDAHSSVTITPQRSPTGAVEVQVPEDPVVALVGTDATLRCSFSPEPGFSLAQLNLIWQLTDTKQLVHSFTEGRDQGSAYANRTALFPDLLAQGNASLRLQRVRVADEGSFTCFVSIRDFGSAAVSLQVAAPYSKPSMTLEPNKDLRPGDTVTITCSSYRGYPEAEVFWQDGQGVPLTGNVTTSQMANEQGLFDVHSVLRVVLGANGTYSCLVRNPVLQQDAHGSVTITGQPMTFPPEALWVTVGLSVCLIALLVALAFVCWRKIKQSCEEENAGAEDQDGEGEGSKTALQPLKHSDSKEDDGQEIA
methodSummary: FACS on SKOV3 cells
Label TRUE when EC50 < 0.8 µg/mL; otherwise FALSE.

binder | discreteLabel
3-G7-D8-D3 (human IgG1 chimeric antibody) (antibody, V domains shown, human IgG1 chimeric antibody of the mouse clone) VH: QVQLQQSGAELARPGTSVKLSCKASGYTFTTYWIQWVKQRPGQGLEWIGAIYPGDGDTRYTQKFKGKATLTADKSSSTAYMQLSTLASEDSAVYYCARPYDGYYIDYPMDSWGQGTSVTVSS VL: QIVLTQSPAIMSASPGEKVTMTCSASSRINYMHWYQQKPGTSPIIWIYDTSKLASGVPARFSGSGSGTSYSLTISSMEAEDAATYYCHQRSSYPFTFGSGTKLEIK | TRUE
25-C8-D7-C5 (human IgG1 chimeric antibody) (antibody, V domains shown, human IgG1 chimeric antibody of the mouse clone) VH: EVQLQESGGGLVKPGGSLKFSCAASGFTFSTYAMSWVRQTPEKRLEWVATISGGGIDTYYPDSVKGRFTISRDNAKNTLYLQMNSLRSEDTAMYYCARQGSKGWGAMDYWGQGTSVTVSS VL: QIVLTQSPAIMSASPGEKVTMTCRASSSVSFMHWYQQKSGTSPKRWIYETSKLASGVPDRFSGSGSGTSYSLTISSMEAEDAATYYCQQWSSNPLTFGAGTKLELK | FALSE
21-B3-B1-H5 (human IgG1 chimeric antibody) (antibody, V domains shown, human IgG1 chimeric antibody of the mouse clone) VH: QIQLVQSGPELKKPGETVKISCKASGYIFRNYGMNWVKQAPGKGLKWMGWINSYTGKPTYVDDFKGRFAFSLETSASTAYLQINNLKNEDMATYFCARDDGYWYTMDYWGQGTSVTVSS VL: DVVMTQTPLSLPVSLGDQASISCRSSQSLVHSNGHTYLHWYLQKPGQSPKLLIYKVSNRFSGVPDRFSGSGSGTDFTLKISRVEAEDLGVYFCSQSTHVPWTFGGGTKLEIK | TRUE
